What Neutralizing activity (%) at 100 µg/ml was measured for each of the following?
biological target: Influenza virus A/Panama/2007/1999 (H3N2) (Influenza A virus A/Panama/2007/1999 (H3N2)); assay: cell-based or functional assay
Give bare numbers, in %.

The examples below pair each entry with its known result.
Group 64 representative clone F083-301, Fab-PP-type antibody (Fab, V domains shown) VH: QVQLVQSGAEVKKPGSSVKVSCKASGGIFNSNAISWVRQAPGQGLEWMGGIIGIFGTANYAQKFQGRVTIAADQSTNTVFMELSSLTSEDTAVYFCARSRGYSFGYGTDYFDYWGQGTLVTVSS VL: DIVMTQSPSTLSASVGDRVTITCRASQSISSWLAWYQQAPGKAPKLLIYEASKLQSGVPSRFSATGSGTEFTLTIASLQPEDFAIYYCQHYEAYPFSFGPGTKLDVK : -2.7
Group 65 representative clone F083-366, Fab-PP-type antibody (Fab, V domains shown) VH: QVQLVQSGSEVKKPGSSVKVSCKASRGIFSSYAISWVRQAPGQGLEWMGAVIPMFGTLKYAENFQGRITISADKSMSAAYMELSSLRSEDTAVYYCARNYYGSGTYFNDAFDIWGQGTMVTVSS VL: QSVLTQPPSGSGAPGQRVTISCTGGNSNIGAGYDVNGYQQLPGKAPKLLIYGNNNRPSGVPDRFSGSKSGTSASLAITGLQVEDEAHYYCQSYDNGLSGSVFGGGTQLTVLG : -13
Group 54 representative clone F083-354, Fab-PP-type antibody (Fab, V domains shown) VH: QVQLVQSGSEVKKPGSSVKVSCKASGGIFNSYGISWVRQAPGQGLEWMGGILAIFGTTNYAQKFQGRVTITADDSSKTVYMELSSLTSEDTAVYYCARGSTYYSSYFDQWGQGTLVTVSS VL: DIQMTQSPSSLSASVGDRVTITCRASQGIRNSLAWYQQKPGQVPKLLIYSATTLRSGVPYRFSGSGSGTDFTLTISGLQPEDVGTYFCHRYDSAPLTFGGGTRVALK : -0.7
Group 56 representative clone F083-318, Fab-PP-type antibody (Fab, V domains shown) VH: EVQLVQSGAEVKKPGSSVKVSCQASGSIFSNYAINWVRQAPGQGLEWMGGIVPIFGTTRFAQKFQGRLTITADEPRSTAYMELNNLISEDTAVYYCARAPLIYNWYYDLWGRGTLVTVSS VL: EIVLTQSPSSLSASVGDRVTITCRASQGISNYLAWYQQKPGKVPKLLIYAASTLQSGVPSRFSGSGSGTDFTLTISSLQPEDVATYYCQKYNSAPHTFGPGTKVDIK : 7.5

Challenge: I have this binder here, Group 80 representative clone F083-373, Fab-PP-type antibody (Fab, V domains shown) VH: QVQLVQSGADVKKPGSSVRVSCKASGRTFGNYAISWVRQAPGQGLEWMGGITPIFGAANYAQKFQGRVTISADLSTTMVYMDLSSLRSDDTAFYYCAGHPTYYYGSPMDYWGQGTLVTVSS VL: EIVLTQSPSSLSASVGDRVTITCRASQSIATYLNWYQQKPGKAPNLLIYAASNLQSGVPSRFSGSGSGTDFTLTISSLQPEDFATYVCLQSYSATLTFGGGTKVEIK , and I need its recorded Neutralizing activity (%) at 100 µg/ml.
Response given: -6.9
